Each recorded value in this set is attributed to PubChem BioAssay AID488828.

I'd appreciate it if you could supply IC50 values for the items below.
# Experimental Target: Transitional endoplasmic reticulum ATPase (Homo sapiens) (UniProt P55072)
# Sequence (P55072 whole entry, looked up): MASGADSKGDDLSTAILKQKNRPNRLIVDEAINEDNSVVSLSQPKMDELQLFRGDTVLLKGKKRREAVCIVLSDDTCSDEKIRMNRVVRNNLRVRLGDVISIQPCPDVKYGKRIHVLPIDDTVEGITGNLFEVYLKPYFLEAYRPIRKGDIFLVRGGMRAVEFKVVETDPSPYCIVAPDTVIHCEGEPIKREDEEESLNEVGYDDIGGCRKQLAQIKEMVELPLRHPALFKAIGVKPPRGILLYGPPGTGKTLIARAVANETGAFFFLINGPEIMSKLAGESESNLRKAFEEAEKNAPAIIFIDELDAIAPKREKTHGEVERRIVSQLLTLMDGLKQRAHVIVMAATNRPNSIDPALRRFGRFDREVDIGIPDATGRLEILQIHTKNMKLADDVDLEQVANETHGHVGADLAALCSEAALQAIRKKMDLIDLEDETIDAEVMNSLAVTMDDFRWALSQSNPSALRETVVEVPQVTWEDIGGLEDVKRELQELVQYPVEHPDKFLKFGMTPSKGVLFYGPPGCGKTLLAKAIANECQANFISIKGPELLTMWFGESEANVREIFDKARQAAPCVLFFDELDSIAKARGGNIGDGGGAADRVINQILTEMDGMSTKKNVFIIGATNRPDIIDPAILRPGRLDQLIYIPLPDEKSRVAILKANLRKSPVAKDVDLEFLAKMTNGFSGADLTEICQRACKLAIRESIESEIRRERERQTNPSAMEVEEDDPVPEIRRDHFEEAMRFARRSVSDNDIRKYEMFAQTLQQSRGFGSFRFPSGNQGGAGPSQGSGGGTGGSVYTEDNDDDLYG
# Protocol Summary: p97 ATPase inhibitors, SAR follow-up, biochemical, hit optimization round 2 (AID 488828)
# Assay Context: purified p97 ATPase, Kinase-Glo ATP luminescence

{"Smiles Text": "COc1c(F)cccc1Nc1nc(NCc2ccccc2)c2ccccc2n1", "Attribute Measured": "IC50", "Result": "1.7 µM"}
{"Smiles Text": "COc1ccc2c(NCc3ccccc3)nc(NCc3ccccc3)nc2c1", "Attribute Measured": "IC50", "Result": "5.7 µM"}
{"Smiles Text": "FC(F)(F)c1ccc2c(NCc3ccccc3)nc(NCc3ccccc3)nc2c1", "Attribute Measured": "IC50", "Result": "9.1 µM"}
{"Smiles Text": "Clc1cccc(CNc2nc(Nc3cccc(Cl)c3)nc3ccccc23)c1", "Attribute Measured": "IC50", "Result": "5 µM"}
{"Smiles Text": "Clc1cccc(Nc2nc(NCc3ccc(Br)cc3)c3ccccc3n2)c1", "Attribute Measured": "IC50", "Result": "7.4 µM"}
{"Smiles Text": "COc1ccc2nc(NCc3ccccc3)nc(NCc3ccccc3)c2c1", "Attribute Measured": "IC50", "Result": "7.5 µM"}
{"Smiles Text": "Clc1cccc(Nc2nc(NCc3ccccc3Cl)c3ccccc3n2)c1", "Attribute Measured": "IC50", "Result": "4.7 µM"}
{"Smiles Text": "COc1c(Cl)cccc1Nc1nc(NCc2ccccc2)c2ccccc2n1", "Attribute Measured": "IC50", "Result": "0.9 µM"}

Kindly give each listed record's IC50.
1. Brc1cccc2c(NCc3ccccc3)nc(NCc3ccccc3)nc12
2. Fc1cccc2c(NCc3ccccc3)nc(NCc3ccccc3)nc12

Ans:
1. 3.3 µM
2. 3.1 µM
